FYI, the data here is from PubChem BioAssay (NCI).

system: HOP-92 NSCLC; experiment: NCI-60 one-dose screen, 48 h (100 = growth as untreated, 0 = no growth, -100 = all killed); conditions: 10 µM unless noted
About 83,000 compounds went through this panel and 20% of them were active in at least one assay; those are over-represented in the sample as a whole.

testSmiles: CCCCn1c(=O)c2c(nc(NCCc3ccc(O)c(O)c3)n2CCC)n(CCCC)c1=O
resultUnit: %
growth: 69.8
--
testSmiles: C[C@]12CC[C@@H]3c4cc(OC(F)F)c(O)cc4CC[C@H]3[C@@H]1CC[C@@H]2OS(N)(=O)=O
resultUnit: %
growth: 74.6
--
testSmiles: CCc1ccccc1-n1c(-c2ccc(Cl)cc2)cc(-c2ccc(OC)cc2)c(C#N)c1=O
resultUnit: %
growth: 63.5
